B1: VPS39 (parent)
chain: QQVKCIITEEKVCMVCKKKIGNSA

# Variants of: B1
# test details: protein stability index of a GFP-peptide fusion (GPS, HEK-293T) (PSI 1-6); higher = more stable;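 also: lentivirally expressed fusions sorted by FACS into six bins by GFP to DsRed ratio, PSI derived from sequencing read proportions per bin multiplied by bin number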
# recorded conditions: c terminus: a fixed tail appended
Reported protein stability index by item:

| variant label | protein stability index |
| --- | --- |
| N22T | 2.29 |
| V15H | 3.43 |
| V15E | 4.38 |
| I20C | 3.26 |
| C16M | 3.13 |
| C5M | 1.99 |
| C13W | 2.6 |
| V3M | 2.8 |
| A24E | 2.48 |
| V3G | 3.01 |
| S23W | 1.82 |
| G21A | 2.98 |
| C13E | 4.41 |
| S23P | 2.4 |
| A24K | 3.03 |
| C5N | 2.79 |
| K18E | 3.09 |
| Q2N | 2.26 |
| S23K | 3.09 |
| I20Q | 3.53 |
| C13S | 3.52 |
| K18L | 2.16 |
| Q2M | 2.93 |
| N22L | 2.57 |
| I6N | 3.25 |
| C16R | 4.5 |
| V15F | 2.92 |
| C5W | 1.94 |
| G21V | 3.1 |
| E9I | 1.81 |
| S23L | 1.45 |
| K17P | 3 |
| E9T | 2.08 |
| K17L | 1.42 |
| Q2D | 3.15 |
| V15I | 2.27 |
| C5Y | 2.69 |
| A24C | 3.03 |
| C13Q | 3.78 |
| C13K | 2.82 |
| V12T | 2.69 |
| N22Q | 3.38 |
| K18G | 2.56 |
| T8I | 2.12 |
| E9D | 3.29 |
| C16S | 3.45 |

Data provenance is the supplement of paper PMC10567573.
